Hey, just so you know, these numbers are from paper PMC2763353.

target-or-system: Pax5(1-149) WT;GABPα(311-430) (human;, UniProt Q02548;Q00422 1-149;311-430, |)
Sequence (Q02548 1-149, chain 1 of 2): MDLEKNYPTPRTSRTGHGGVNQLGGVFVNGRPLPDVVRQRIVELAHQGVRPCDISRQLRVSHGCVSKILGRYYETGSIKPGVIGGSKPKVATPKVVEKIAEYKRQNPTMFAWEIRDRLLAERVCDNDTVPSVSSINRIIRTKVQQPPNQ
Sequence (Q00422 311-430, chain 2 of 2): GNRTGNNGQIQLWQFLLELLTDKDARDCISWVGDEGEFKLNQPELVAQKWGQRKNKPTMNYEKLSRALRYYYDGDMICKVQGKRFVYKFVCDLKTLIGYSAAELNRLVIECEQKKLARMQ
method-description: EMSA
quantity: Kd (nM)
Lab book: enter the figure in nM, no units written.

Value lookup for Kd; key = P5-EBS probe (dsDNA) DNA 1: TCGAAGGGCCACTGGAGCCCATCTCCGGCACGGC DNA 2: TCGAGCCGTGCCGGAGATGGGCTCCAGTGGCCCT 17.8
